These data points were gathered from ChEMBL document CHEMBL4425171.

Target: Cholinesterase (Equus caballus, UniProt P81908)
Sequence (P81908 whole entry): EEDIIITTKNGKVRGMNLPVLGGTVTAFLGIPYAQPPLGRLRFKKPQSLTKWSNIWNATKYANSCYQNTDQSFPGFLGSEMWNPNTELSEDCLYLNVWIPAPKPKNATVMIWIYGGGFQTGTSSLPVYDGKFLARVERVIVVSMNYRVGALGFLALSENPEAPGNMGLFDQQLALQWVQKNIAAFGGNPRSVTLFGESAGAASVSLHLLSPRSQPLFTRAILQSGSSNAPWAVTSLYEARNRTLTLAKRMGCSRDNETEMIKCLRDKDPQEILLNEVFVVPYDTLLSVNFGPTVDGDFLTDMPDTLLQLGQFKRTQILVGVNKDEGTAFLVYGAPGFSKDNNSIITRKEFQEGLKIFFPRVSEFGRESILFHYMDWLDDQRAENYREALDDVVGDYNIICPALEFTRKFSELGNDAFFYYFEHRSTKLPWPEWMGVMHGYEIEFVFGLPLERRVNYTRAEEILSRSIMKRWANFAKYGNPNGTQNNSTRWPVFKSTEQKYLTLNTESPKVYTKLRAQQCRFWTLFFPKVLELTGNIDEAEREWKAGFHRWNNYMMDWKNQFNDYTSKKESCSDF
Test: Inhibition of equine serum BChE using butyrylthiocholine chloride as substrate preincubated for 4.5 mins followed by substrate addition measured after 2.5 mins by Ellmans method
pIC50: −log10 of the molar value.
value kind: pIC50

* c1cc2c(cc1OCCCN1CCCCC1)CN1CCCC1=N2 | 5.09

* * *

Notes on IC50 obtained with UniProt P81908.
value kind: IC50

• Clc1ccc(OCCCCCCCN2CCCCCC2)cc1 = 1.64 µM
• Clc1ccc(OCCCCCN2CCCCCC2)cc1 = 3.45 µM
• CC1CCCN(CCCCCCOc2cccc(Cl)c2)C1 (stereo unspecified) = > 10 µM
• CC1CCN(CCCCCCOc2ccc(Cl)cc2)CC1 = 5.43 µM
• Clc1ccc(OCCCOCCCN2CCCCCC2)cc1 = 4.97 µM
• CC1CCN(CCCCCCCOc2cccc(Cl)c2)CC1 = 1.66 µM
• CC1CCCN(CCCCCOc2ccc(Cl)cc2)C1 (stereo unspecified) = > 10 µM
• CC1CCCN(CCCCCCCOc2ccc(Cl)cc2)C1 (stereo unspecified) = > 10 µM
• Clc1cccc(OCCCCCCCN2CCCCCC2)c1 = 0.9 µM
• Clc1cccc(OCCCCCCN2CCCCCC2)c1 = 2.43 µM
• CC1CCCN(CCCCCCOc2ccc(Cl)cc2)C1 (stereo unspecified) = > 10 µM
• Clc1ccc(OCCCCCCCN2CCCCC2)cc1 = > 10 µM
• Clc1cccc(OCCCCCCN2CCCCC2)c1 = > 10 µM
• CC1CCN(CCCCCOc2ccc(Cl)cc2)CC1 = > 10 µM
• CC1CCN(CCCCCCCOc2ccc(Cl)cc2)CC1 = 2.92 µM
• Clc1ccc(OCCCCCCN2CCCCCC2)cc1 = 3.74 µM
• Clc1ccc(OCCCCCCN2CCCCC2)cc1 = > 10 µM
• CC1CCCN(CCCCCCCOc2cccc(Cl)c2)C1 (stereo unspecified) = 5.15 µM
• Clc1cccc(OCCCCCCCN2CCCCC2)c1 = 4.75 µM
• Clc1ccc(OCCCCCN2CCCCC2)cc1 = > 10 µM
• CC1CCN(CCCCCCOc2cccc(Cl)c2)CC1 = 3.53 µM

* * *

Notes on IC50 obtained with Acetylcholinesterase (Electrophorus electricus).
Sequence (O42275 whole entry): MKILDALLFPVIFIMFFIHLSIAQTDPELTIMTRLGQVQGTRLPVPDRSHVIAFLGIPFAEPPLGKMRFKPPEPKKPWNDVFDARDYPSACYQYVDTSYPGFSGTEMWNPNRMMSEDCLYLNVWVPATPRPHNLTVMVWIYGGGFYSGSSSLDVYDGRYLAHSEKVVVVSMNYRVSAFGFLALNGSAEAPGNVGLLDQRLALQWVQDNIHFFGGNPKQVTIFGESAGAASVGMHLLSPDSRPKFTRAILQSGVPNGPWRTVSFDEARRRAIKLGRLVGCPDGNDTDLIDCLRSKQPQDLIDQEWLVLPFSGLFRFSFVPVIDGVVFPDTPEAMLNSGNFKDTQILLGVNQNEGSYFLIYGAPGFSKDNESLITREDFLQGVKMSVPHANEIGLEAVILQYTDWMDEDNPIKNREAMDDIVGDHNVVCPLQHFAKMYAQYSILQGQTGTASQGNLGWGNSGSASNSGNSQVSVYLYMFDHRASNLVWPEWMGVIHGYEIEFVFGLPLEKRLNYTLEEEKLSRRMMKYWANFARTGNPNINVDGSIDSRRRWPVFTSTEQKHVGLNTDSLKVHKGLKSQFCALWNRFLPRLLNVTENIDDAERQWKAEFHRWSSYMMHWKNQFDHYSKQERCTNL
value kind: IC50 (µM)

• Clc1cccc(OCCCCCCN2CCCCCC2)c1 = 5.4
• Clc1ccc(OCCCCCCCN2CCCCCC2)cc1 = 1.93
• CC1CCN(CCCCCCCOc2cccc(Cl)c2)CC1 = 4.9
• CC1CCCN(CCCCCCCOc2ccc(Cl)cc2)C1 (stereo unspecified) = 4.51
• CC1CCN(CCCCCCCOc2ccc(Cl)cc2)CC1 = 2.74
• Clc1cccc(OCCCCCCCN2CCCCC2)c1 = 5.33
• Clc1ccc(OCCCOCCCN2CCCCCC2)cc1 = 7.91
• CC1CCN(CCCCCCOc2cccc(Cl)c2)CC1 = 7.31
• CC1CCCN(CCCCCCOc2cccc(Cl)c2)C1 (stereo unspecified) = 6.22
• Clc1ccc(OCCCCCCN2CCCCCC2)cc1 = 3.88
• CC1CCCN(CCCCCCOc2ccc(Cl)cc2)C1 (stereo unspecified) = 4.8
• CC1CCCN(CCCCCCCOc2cccc(Cl)c2)C1 (stereo unspecified) = 3.8
• Clc1cccc(OCCCCCCCN2CCCCCC2)c1 = 2.42
• CC1CCN(CCCCCCOc2ccc(Cl)cc2)CC1 = 8.11
• Clc1ccc(OCCCCCCCN2CCCCC2)cc1 = 3.94
• Clc1cccc(OCCCCCCN2CCCCC2)c1 = 18.6
• CC1CCCN(CCCCCOc2ccc(Cl)cc2)C1 (stereo unspecified) = 23.6
